Record form. Attribute: Mono. Fill in for each entry.
Species: Rattus norvegicus
test-summary: Open TG-GATES - Regimen: Daily Repeat
Type: toxicity, organism-based, Sprague-Dawley
Parameters: regimen Daily Repeat, gender Male, age 6 weeks
stated-conditions: in vivo, po, 0 mg/kg, […], tissue Blood, route gavage, dose level Control, time 14 day
Numbers only, in %.

Worked examples, 4 molecules total:
CC(C)C(=O)Nc1ccc([N+](=O)[O-])c(C(F)(F)F)c1 [FLUTAMIDE] ... 2.4
CCC(C)(C)C(=O)O[C@H]1C[C@@H](C)C=C2C=C[C@H](C)[C@H](CC[C@@H]3C[C@@H](O)CC(=O)O3)[C@H]21 [SIMVASTATIN] ... 7
CN1C(=O)OC(C)(C)C1=O [TRIMETHADIONE] ... 2
O=C(O)c1cccnc1 [NIACIN] ... 2.6

Problem: Provide only the value of recorded Mono for CC(=N)S [THIOACETAMIDE]
Result: 5.8

* * *

Organism: Rattus norvegicus
test-summary: Open TG-GATES - Regimen: Daily Repeat
Type: toxicity, organism-based, Sprague-Dawley
Design: regimen Daily Repeat, gender Male, age 6 weeks
stated-conditions: in vivo, po, 1000 mg/kg, […], tissue Blood, route gavage, dose level High, time 7 day
measurement-type: MCHC (%)
One number for each entry, in %.

O=C(O)c1cccnc1 ... 33.5
CCN1CCCC1CNC(=O)c1cc(S(N)(=O)=O)ccc1OC (centres undefined) [SULPIRIDE] ... 33.3
CC(C)(S)[C@@H](N)C(=O)O ... 32.5

Problem: Provide only the value of recorded MCHC for O=C(N[C@H](CO)[C@H](O)c1ccc([N+](=O)[O-])cc1)C(Cl)Cl
Result: 32.5

* * *

Species: Rattus norvegicus
test-summary: Open TG-GATES - Regimen: Daily Repeat
Format: toxicity, organism-based, Sprague-Dawley
Design: regimen Daily Repeat, gender Male, age 6 weeks
stated-conditions: in vivo, po, 300 mg/kg, 72 h, tissue Blood, route gavage, dose level Middle, time 3 day
Record form. Attribute: Lym. Fill in for each entry.
One number for each entry, in %.

Worked examples, 3 compounds total:
O=C(O)c1cccnc1 [NIACIN] ... 75.2
O=C(N[C@H](CO)[C@H](O)c1ccc([N+](=O)[O-])cc1)C(Cl)Cl [CHLORAMPHENICOL] ... 83.4
CCN1CCCC1CNC(=O)c1cc(S(N)(=O)=O)ccc1OC (centres undefined) [SULPIRIDE] ... 78.8

Please look at the following compound next.
Problem: Provide only the value of recorded Lym for CC(C)(S)[C@@H](N)C(=O)O [PENICILLAMINE]
Result: 79.2

* * *

Species on record: Rattus norvegicus
test-summary: Open TG-GATES - Regimen: Daily Repeat
Type: toxicity, organism-based, Sprague-Dawley
Design: regimen Daily Repeat, gender Male, age 6 weeks
stated-conditions: in vivo, po, 0 mg/kg, […], tissue Plasma, route gavage, dose level Control, time 14 day
Record form. Attribute: PL. Fill in for each entry.
Numbers only, in mg/dL.

C[C@](N)(Cc1ccc(O)c(O)c1)C(=O)O [METHYLDOPA] ... 151.8
CC(C)C(=O)Nc1ccc([N+](=O)[O-])c(C(F)(F)F)c1 [FLUTAMIDE] ... 133.4
CCc1oc2ccccc2c1C(=O)c1cc(I)c(O)c(I)c1 [BENZIODARONE] ... 149

Count: 3. Required value per item: PL.
1. Oc1ncnc2[nH]ncc12 [ALLOPURINOL]
2. C#C[C@]1(O)CC[C@H]2[C@@H]3CCc4cc(O)ccc4[C@H]3CC[C@@]21C [ETHINYL ESTRADIOL]
3. O=C(N[C@H](CO)[C@H](O)c1ccc([N+](=O)[O-])cc1)C(Cl)Cl [CHLORAMPHENICOL]

Result:
[150, 143, 151.6]

* * *

Organism: Rattus norvegicus
test-summary: Open TG-GATES - Regimen: Daily Repeat
Format: toxicity, organism-based, Sprague-Dawley
Parameters: regimen Daily Repeat, gender Male, age 6 weeks
stated-conditions: in vivo, po, 100 mg/kg, […], tissue Plasma, route gavage, dose level Low, time 7 day
Record form. Attribute: DBIL. Fill in for each entry.

O=C(O)c1cccnc1 ... 0 mg/dL
O=C(N[C@H](CO)[C@H](O)c1ccc([N+](=O)[O-])cc1)C(Cl)Cl ... 0.026 mg/dL

Count: 2. Required value per item: DBIL.
1. CC(C)(S)[C@@H](N)C(=O)O
2. CCN1CCCC1CNC(=O)c1cc(S(N)(=O)=O)ccc1OC (centres undefined) [SULPIRIDE]

Result:
1: 0.01 mg/dL; 2: 0.008 mg/dL

* * *

Species: Rattus norvegicus
test-summary: Open TG-GATES - Regimen: Daily Repeat
Type: toxicity, organism-based, Sprague-Dawley
Design: regimen Daily Repeat, gender Male, age 6 weeks
stated-conditions: in vivo, po, 1000 mg/kg, 72 h, tissue Blood, route gavage, dose level High, time 3 day
measurement-type: MCHC
Entry format: amount then unit.

Worked examples, 3 molecules total:
O=C(O)c1cccnc1 ... 33.5%
O=C(N[C@H](CO)[C@H](O)c1ccc([N+](=O)[O-])cc1)C(Cl)Cl ... 32.7%
CC(C)(S)[C@@H](N)C(=O)O ... 32.7%

Please look at the following molecule next.
Problem: Provide only the value of recorded MCHC for CCN1CCCC1CNC(=O)c1cc(S(N)(=O)=O)ccc1OC (centres undefined) [SULPIRIDE]
Result: 33.1%

* * *

Record form. Attribute: TERMINAL_BW. Fill in for each entry.
Species on record: Rattus norvegicus
test-summary: Open TG-GATES - Regimen: Single
Format: toxicity, organism-based, Sprague-Dawley
Set-up: regimen Single, gender Male, age 6 weeks
stated-conditions: in vivo, po, 0 mg/kg, 24 h, route gavage, dose level Control
Numbers only, in g.

Worked examples, 5 compounds total:
C[C@](N)(Cc1ccc(O)c(O)c1)C(=O)O ... 194.8
CCC(C)(C)C(=O)O[C@H]1C[C@@H](C)C=C2C=C[C@H](C)[C@H](CC[C@@H]3C[C@@H](O)CC(=O)O3)[C@H]21 ... 215.6
CC(=N)S [THIOACETAMIDE] ... 198.1
CCc1oc2ccccc2c1C(=O)c1cc(I)c(O)c(I)c1 ... 224.5
Nc1nc(N)c2nc(-c3ccccc3)c(N)nc2n1 ... 228.1

Count: 7. Required value per item: TERMINAL_BW.
1. C#C[C@]1(O)CC[C@H]2[C@@H]3CCc4cc(O)ccc4[C@H]3CC[C@@]21C
2. C[C@]12CCC(=O)C=C1CC[C@@H]1[C@@H]2CC[C@@]2(C)[C@H]1CC[C@]2(C)O
3. CC(C)(S)[C@@H](N)C(=O)O
4. CCN1CCCC1CNC(=O)c1cc(S(N)(=O)=O)ccc1OC (stereo not given) [SULPIRIDE]
5. O=C(N[C@H](CO)[C@H](O)c1ccc([N+](=O)[O-])cc1)C(Cl)Cl
6. CC(C)C(=O)Nc1ccc([N+](=O)[O-])c(C(F)(F)F)c1 [FLUTAMIDE]
7. Oc1ncnc2[nH]ncc12

Result:
1. 203.2
2. 210.8
3. 214.6
4. 216.8
5. 230.2
6. 219.3
7. 223.3

Count: 2. Required value per item: TERMINAL_BW.
1. CC(=O)Oc1cc(C(C)C)c(OCCN(C)C)cc1C
2. CCSCC[C@H](N)C(=O)O

Result:
218.4
228.7

Problem: Provide only the value of recorded TERMINAL_BW for CN1C(=O)OC(C)(C)C1=O
Result: 223.7

* * *

Species: Rattus norvegicus
test-summary: Open TG-GATES - Regimen: Daily Repeat
Format: toxicity, organism-based, Sprague-Dawley
Design: regimen Daily Repeat, gender Male, age 6 weeks
stated-conditions: in vivo, po, 300 mg/kg, […], tissue Plasma, route gavage, dose level Middle, time 7 day
measurement-type: IP (mg/dL)
Numbers only, in mg/dL.

Worked examples, 3 molecules total:
O=C(O)c1cccnc1 ... 7.4
CC(C)(S)[C@@H](N)C(=O)O ... 7.2
O=C(N[C@H](CO)[C@H](O)c1ccc([N+](=O)[O-])cc1)C(Cl)Cl ... 7.9

Please look at the following molecule next.
Problem: Provide only the value of recorded IP for CCN1CCCC1CNC(=O)c1cc(S(N)(=O)=O)ccc1OC (centres undefined) [SULPIRIDE]
Result: 8.1

* * *

Species on record: Rattus norvegicus
test-summary: Open TG-GATES - Regimen: Daily Repeat
Type: toxicity, organism-based, Sprague-Dawley
Parameters: regimen Daily Repeat, gender Male, age 6 weeks
stated-conditions: in vivo, po, 0 mg/kg, […], tissue Blood, route gavage, dose level Control, time 28 day
measurement-type: Bas (%)
Answers are plain numbers, in %.

Worked examples, 2 compounds total:
C#C[C@]1(O)CC[C@H]2[C@@H]3CCc4cc(O)ccc4[C@H]3CC[C@@]21C [ETHINYL ESTRADIOL] ... 0.2
C[C@]12CCC(=O)C=C1CC[C@@H]1[C@@H]2CC[C@@]2(C)[C@H]1CC[C@]2(C)O [METHYLTESTOSTERONE] ... 0

Count: 7. Required value per item: Bas.
1. CC(=O)Oc1cc(C(C)C)c(OCCN(C)C)cc1C [MOXISYLYTE]
2. O=C(O)c1cccnc1 [NIACIN]
3. CC(C)(S)[C@@H](N)C(=O)O [PENICILLAMINE]
4. CC(=N)S [THIOACETAMIDE]
5. Nc1nc(N)c2nc(-c3ccccc3)c(N)nc2n1
6. CCSCC[C@H](N)C(=O)O [ETHIONINE]
7. CCN1CCCC1CNC(=O)c1cc(S(N)(=O)=O)ccc1OC (stereo not given) [SULPIRIDE]

Result:
1: 0; 2: 0; 3: 0; 4: 0; 5: 0.6; 6: 0; 7: 0

Problem: Provide only the value of recorded Bas for O=C(N[C@H](CO)[C@H](O)c1ccc([N+](=O)[O-])cc1)C(Cl)Cl [CHLORAMPHENICOL]
Result: 0
